read-out: Keratin 19 (KRT19), KRT19 (gene 3880); assay: LTEA_HepaRG_KRT19: Life Technologies and Expression Analysis (LTEA) Assay for Keratin 19 (KRT19) using HepaRG (AID 2283512); conditions: mRNA level, 48 h; actives raise or lower the signal
Calls of active or inactive are those of the source. How the source made its calls: active means hit-call score of the fitted dose curve at least 0.9, where 1 is the maximum; inactive means score below 0.9.
Thanks in advance; please answer with one of these: 1 (active), 0 (inactive)

Kindly provide the recorded test outcome for the following compound: CC(C)NCC(O)c1ccc(O)c(O)c1 (stereo not drawn)
1

Could you kindly confirm the outcome this assay logged for NCCOCCOCCN ?
0

# outcome recorded in this test, key = CCCC[C@H]1CN(CC2CCOCC2)C(=O)OC12CCN(C1(C)CCN(C(=O)c3c(C)ncnc3C)CC1)CC2
0

Called result for NC(=Nc1ccccc1)Nc1ccccc1
0

For NC=O , which call appears in the assay record?
0

For CN(C)CCCN(C)CCCN(C)C , which call appears in the assay record?
0

Tell me the assay call for CC(COCC(C)OC(=O)c1ccccc1)OC(=O)c1ccccc1 (stereo not drawn) please.
0

Look up the recorded call for CC(=O)S[C@H](C(=O)N[C@H]1Cc2ccccc2[C@H]2CCC[C@@H](C(=O)O)N2C1=O)C(C)C in this test.
0

What was the test verdict on c1ccc2occc2c1 ?
0

What was the test verdict on CCN(CC)CCOc1ccc(C(=C(Cl)c2ccccc2)c2ccccc2)cc1 ?
0

Dear all, I need the recorded test outcome for Nc1nc(Cl)nc2c1ncn2[C@H]1C[C@H](O)[C@@H](CO)O1 , thank you.
0

Please indicate how the test categorized CCCCCCCC(=O)OC .
0

For CCCCOC(=O)CCCCC(=O)OCCCC , which call appears in the assay record?
0

---

read-out: ABC Transporter (ABCB1), ABCB1 (gene 5243); experiment: LTEA_HepaRG_ABCB1: Life Technologies and Expression Analysis (LTEA) Assay for ABC Transporter (ABCB1) using HepaRG (AID 2283460); details: mRNA level, 48 h; actives raise or lower the signal
The source made the active and inactive calls. The calls were made as follows: active = hit-call score of the fitted dose curve at least 0.9, where 1 is the maximum; inactive = score below 0.9.
Select the matching outcome among 1.0 (active), 0.0 (inactive)

For this molecule, state the assay outcome: CCCCCCCCCCCCCCOS(=O)(=O)O
0.0

Assay result, entry O=C1O[C@H]([C@H](O)CO)C(O)=C1O — outcome?
0.0

Test call for this molecule, please: CC(COCC(C)OC(=O)c1ccccc1)OC(=O)c1ccccc1 (configuration not stated)
0.0

What classification did CCC(C)N(C)C(=O)c1cc2ccccc2c(-c2ccccc2Cl)n1 (configuration not stated) end up with in this test?
1.0

Recorded call for O=C(N[C@@H](c1ccccc1)[C@@H]1CCCCN1)c1cccc(C(F)(F)F)c1Cl ?
1.0

Which outcome was assigned to CC(=O)[C@@]1(O)CC[C@H]2[C@@H]3CCC4=CC(=O)CC[C@]4(C)[C@H]3CC[C@@]21C in this test?
0.0

Given CCCCc1nc2cccnc2n1Cc1ccc(-c2ccccc2-c2nnn[nH]2)cc1 , state the outcome it received in this test.
1.0

Assay outcome for CC1=C(C)S(=O)(=O)CCS1(=O)=O : what was it?
1.0

Assay result, entry Cc1c(C)c2c(c(C)c1O)CCC(C)(COc1ccc(CC3SC(=O)NC3=O)cc1)O2 (configuration not stated) — outcome?
0.0

Would you mind telling me which call this test gave CC(C)COC(=O)CCCCC(=O)OCC(C)C ?
0.0

Could you kindly confirm the outcome this assay logged for C=CCCCCCCCCCCCC ?
0.0

Query: recorded result category for COc1ccc(C(=O)Nc2nc3ccccc3c(NCc3ccccc3)c2C#N)cc1 in this test
0.0

# outcome recorded in this test, key = O=C1c2c(O)cccc2Cc2cccc(O)c21
0.0

Give the logged outcome of this assay for the following molecule: COC(=O)[C@H]1[C@H]2C[C@@H]3c4[nH]c5cc(OC)ccc5c4CCN3C[C@H]2C[C@@H](OC(=O)c2cc(OC)c(OC)c(OC)c2)[C@@H]1OC
1.0

How was COC(=O)CCCC(=O)OC classified in this test?
0.0

Status in this test for OCC(O)CO ?
0.0

Tell me the recorded outcome of this test for O=Cc1ccccc1C=O .
0.0

Could you please tell me the result logged for CCCCC(CC)COC(=O)CCCCCCCC(=O)OCC(CC)CCCC (configuration not stated) in this assay?
0.0

What call does the record list for CN(C)CCCN1c2ccccc2Sc2ccc(Cl)cc21 ?
0.0

Short answer needed: outcome of this test for c1ccc2occc2c1 ?
0.0

Would you mind telling me which call this test gave NC=O ?
0.0

Could you check what this test reported for O=NO ?
0.0

Please share the test call associated with CCCCCCC(CCCCCCCCCCC(=O)OCC(COC(C)=O)OC(C)=O)OC(C)=O (configuration not stated) .
0.0

What did the test return for CCCCC(CC)COP(=O)(OCC(CC)CCCC)OCC(CC)CCCC (configuration not stated) ?
1.0

Please state the recorded outcome for this molecule: Cc1cc(Cc2ccc(N)c(C)c2)ccc1N
1.0

Each molecule tested received a call. Report the one for CC1(C)C(=O)NC(=O)N1CO .
0.0

Any idea what this test logged for N[C@@H](Cc1c[nH]c2ccccc12)C(=O)O ?
0.0

Recorded call for O=C(O)CC(O)(CC(=O)O)C(=O)O ?
0.0

For COc1ccc(OC(F)(F)F)cc1CN[C@H]1CCCN[C@H]1c1ccccc1 , which call appears in the assay record?
1.0

So what was the verdict on C/C=C/C=C/C(=O)O in this test?
0.0

Could you check what this test reported for Cc1occc(=O)c1O ?
0.0

Just curious, what result did Nc1nc(Cl)nc2c1ncn2[C@H]1C[C@H](O)[C@@H](CO)O1 get here?
1.0

Please share the test call associated with Cc1cc(SC2=C(O)C[C@@](CCc3ccc(N)cc3)(C(C)C)OC2=O)c(C(C)(C)C)cc1CO .
1.0

Hey, what did the test say about NC1CCCCC1 ?
0.0

What outcome does the record of this test show for O=C(O)CN(CC(=O)O)CC(=O)O ?
0.0

Any idea what this test logged for Nc1nc(=S)c2[nH]cnc2[nH]1 ?
1.0

What was the test verdict on CS(=O)(=O)c1ccc([C@@H](C[C@H]2CCC(=O)C2)C(=O)Nc2cnccn2)cc1Cl ?
1.0

Outcome logged for CCCC[C@H]1CN(CC2CCOCC2)C(=O)OC12CCN(C1(C)CCN(C(=O)c3c(C)ncnc3C)CC1)CC2 in this assay:
0.0

Which outcome was assigned to S=c1[nH]c2ccccc2s1 in this test?
0.0

Tell me the recorded outcome of this test for Cn1cnc2c1c(=O)[nH]c(=O)n2C .
0.0

Record request — test call for CC(C)NCC(O)c1ccc(O)c(O)c1 (configuration not stated)
0.0

Assay result, entry CCCCOC(=O)CCCCC(=O)OCCCC — outcome?
0.0

Could you please tell me the result logged for Cc1ccc(-c2cc(C(F)(F)F)nn2-c2ccc(S(N)(=O)=O)cc2)cc1 in this assay?
1.0

Called result for OCC(CO)n1cnc(-c2ccc(F)cc2)c1-c1ccnc(Oc2ccccc2)n1
1.0

Hey, what did the test say about CC(C)c1cccc(C(C)C)c1NC(=O)NS(=O)(=O)c1cc(C(C)(C)O)co1 ?
1.0

Answer briefly: the call reported for O=C(NS(=O)(=O)/C=C/c1cccs1)c1ccc(F)cc1Br in this assay.
1.0

Would you mind telling me which call this test gave CCCCCCCC(=O)OC ?
0.0
